A collection of compounds and their measured cytotoxicity at 70.5 h
test: Human HepG2 cell viability assay in 384 well format
Assay type: toxicity, cell-based
Parameters: dose 125 nL, time 70.5 hour; concentration not given beside the values
conditionParameters: HepG2 cells, read-out: Inhibition
attributeMeasured: cytotoxicity at 70.5 h (%)

compound: CS(=O)(=O)N1CC[C@]2(O)CCN(c3cc(C#N)ccn3)C[C@@H]2C1
attributeMeasured: cytotoxicity at 70.5 h
number: -11.9
--
compound: O=C(NCCCn1nc2ccccn2c1=O)Nc1ccccc1
attributeMeasured: cytotoxicity at 70.5 h
number: 16.7
--
compound: CCc1ccccc1NC(=O)C1CN(C(C)=O)C1
attributeMeasured: cytotoxicity at 70.5 h
number: 11.2
--
compound: c1cc(CN(CCCn2ccnc2)Cc2ccoc2)ccn1
attributeMeasured: cytotoxicity at 70.5 h
number: -4.93
--
compound: COCCNc1c(-c2ccc(C)cc2)c(=O)c1=O
attributeMeasured: cytotoxicity at 70.5 h
number: -9.49
--
compound: COCCOc1cc(C)ccc1NC(=O)N(C)Cc1cnn(C)c1
attributeMeasured: cytotoxicity at 70.5 h
number: -13.2
--
compound: Cc1cnc(N2C[C@@H]3[C@@H](C(=O)NC(C)C)CCS(=O)(=O)[C@@H]3C2)nc1
attributeMeasured: cytotoxicity at 70.5 h
number: 18
--
compound: CN1CCCc2cc(-c3cncn3CC(=O)NC(C)(C)C)ccc21
attributeMeasured: cytotoxicity at 70.5 h
number: -16.5
--
compound: COCCN(C(=O)c1ccn(-c2ccc(OC)cc2)n1)C(C)C(N)=O (stereo unspecified)
attributeMeasured: cytotoxicity at 70.5 h
number: 20.6
--
compound: O=C(OCc1cccs1)c1cccc(C(=O)N2CCCC2)n1
attributeMeasured: cytotoxicity at 70.5 h
number: -8.17
--
compound: CCOCC(=O)NCC1CCN(Cc2ccsc2)CC1
attributeMeasured: cytotoxicity at 70.5 h
number: 1.54

###

test: Human HepG2 cell viability assay in 384 well format
Type: toxicity, cell-based
Parameters: dose 125 nL, time 70.5 hour; concentration not given beside the values
conditionParameters: HepG2 cells, read-out: Inhibition
attributeMeasured: cytotoxicity at 70.5 h (%)

compound: COc1ccccc1N1CCN(Cc2nccc(OC)c2OC)CC1=O
attributeMeasured: cytotoxicity at 70.5 h
number: 7.74

compound: C=C(C)CN(CC)Cc1nc(CC)no1
attributeMeasured: cytotoxicity at 70.5 h
number: -8.43

compound: COc1cccc(-c2noc(CN3CCOCC3C)n2)c1 (stereo not drawn)
attributeMeasured: cytotoxicity at 70.5 h
number: -2.13

compound: Cc1c(C(=O)N(CCN(C)C)Cc2ccccn2)oc2ccccc12
attributeMeasured: cytotoxicity at 70.5 h
number: -5.85

compound: CCNc1c(C#N)c(=O)n(C)c(=O)n1C
attributeMeasured: cytotoxicity at 70.5 h
number: -8.97

compound: CCc1nccn1C1CCCN(C(=O)c2ccc3c(c2)OCO3)C1 (stereo not drawn)
attributeMeasured: cytotoxicity at 70.5 h
number: -6.7

compound: Cc1nn(C)c(Oc2ccc(Cl)cc2)c1CN1CCC(CN)C1 (stereo not drawn)
attributeMeasured: cytotoxicity at 70.5 h
number: -8.55

compound: COCCN1CCC2(CC1)CC(CC(N)=O)c1ccc(F)cc12 (stereo not drawn)
attributeMeasured: cytotoxicity at 70.5 h
number: 1.63

compound: OCCN(Cc1cccnc1)c1ncc(Br)cn1
attributeMeasured: cytotoxicity at 70.5 h
number: -2

compound: CCOc1cc2c(cc1CN1CCC3(CC1)CNC(=O)C3)CCC2
attributeMeasured: cytotoxicity at 70.5 h
number: 23.3

compound: CC(=O)Nc1cc(C(=O)Nc2cc(CC(C)(C)C)nn2C)ccc1F
attributeMeasured: cytotoxicity at 70.5 h
number: 14.4

compound: Cc1nc(C)n(C2CCCN(C(=O)Cc3csc(C(C)C)n3)C2)n1 (stereo not drawn)
attributeMeasured: cytotoxicity at 70.5 h
number: -3.36

compound: Cc1nnc(NC(=O)NCc2ccc(N3CCNC(=O)C3)cc2)s1
attributeMeasured: cytotoxicity at 70.5 h
number: -3.76

compound: CC(C)Cn1cc(NC(=O)NCC2CCN(c3ccccc3)C2)cn1 (stereo not drawn)
attributeMeasured: cytotoxicity at 70.5 h
number: -0.00229

compound: O=C1CC2(CCCC2)CN1CCOc1ccc(F)cc1
attributeMeasured: cytotoxicity at 70.5 h
number: -9.74

compound: C1CC(CO[C@@H]2CC[C@H]3[C@H]2OCCN3CC2CC2)CCO1
attributeMeasured: cytotoxicity at 70.5 h
number: -82.4

compound: O=C(CNC(=O)N1CCc2c([nH]c3ccc(Cl)cc23)C1)N1CCOCC1
attributeMeasured: cytotoxicity at 70.5 h
number: 37.5

compound: O=C(c1cnc(OCC(F)(F)F)c(Cl)c1)N1CCc2ccc(O)cc2C1
attributeMeasured: cytotoxicity at 70.5 h
number: -18.4

compound: Cc1ccc(C2CCCCCN2Cc2cn(C)nc2C)s1 (stereo not drawn)
attributeMeasured: cytotoxicity at 70.5 h
number: -19.6

compound: Cc1ccc2c(c1)CCCN2C(=O)c1cncc(Br)c1
attributeMeasured: cytotoxicity at 70.5 h
number: 20.3

compound: CC(C)c1nnc(NC(=O)c2cccc(OCC(F)(F)F)n2)[nH]1
attributeMeasured: cytotoxicity at 70.5 h
number: -3.15

compound: CCOc1nnc(CN2CCN(CCOC)C(C)C2)s1 (stereo not drawn)
attributeMeasured: cytotoxicity at 70.5 h
number: -7.83

compound: COCCn1cc(C(=O)Nc2nc3c(s2)CCC3)c2ccccc21
attributeMeasured: cytotoxicity at 70.5 h
number: 37

compound: COCCCNC(=O)NCc1ccc(N2CCOC(C)C2)nc1 (stereo not drawn)
attributeMeasured: cytotoxicity at 70.5 h
number: 17.1

compound: CC(C)c1ccc(S(=O)(=O)Cc2nc(N)nc(N(C)C)n2)cc1
attributeMeasured: cytotoxicity at 70.5 h
number: -1.91

compound: Cc1cc(C(=O)N2CCN[C@H](C)C2)c2ccc(F)cc2n1
attributeMeasured: cytotoxicity at 70.5 h
number: 15.7

compound: CCOCC1CN(S(=O)(=O)CC)Cc2nn(C)cc21 (stereo not drawn)
attributeMeasured: cytotoxicity at 70.5 h
number: -8.48

compound: CN(C)Cc1nnc(C2CCCN(c3ncccc3F)C2)n1C (stereo not drawn)
attributeMeasured: cytotoxicity at 70.5 h
number: 24.4

compound: O=C(N1CCOCC1)N1C[C@H]2CN(Cc3nccs3)C[C@H]2C1
attributeMeasured: cytotoxicity at 70.5 h
number: 3.41

compound: Cc1cc2nc(C(C)C)cc(N3CCC(O)CC3)n2n1
attributeMeasured: cytotoxicity at 70.5 h
number: -9.55

compound: COc1ccnc(N(C)Cc2c(C)noc2C)n1
attributeMeasured: cytotoxicity at 70.5 h
number: -3.59

compound: CC(=O)N1CCCN(C(=O)NCCCN(C)S(C)(=O)=O)CC1
attributeMeasured: cytotoxicity at 70.5 h
number: -8.8

compound: Cc1ccccc1C1(C(=O)NCCN(C)C)CCOCC1
attributeMeasured: cytotoxicity at 70.5 h
number: -3.78

compound: COCCN(Cc1ccccn1)C(=O)CC1OCCc2ccccc21 (stereo not drawn)
attributeMeasured: cytotoxicity at 70.5 h
number: -6.98

compound: Cc1nn(C)c(N2CCOCC2)c1CNCC1CCS(=O)(=O)C1 (stereo not drawn)
attributeMeasured: cytotoxicity at 70.5 h
number: -10.2

compound: CS(=O)(=O)N1CCC(C(=O)NCCNc2ncccn2)CC1
attributeMeasured: cytotoxicity at 70.5 h
number: -19.2

compound: O=C(Nc1cc(C(F)(F)F)c[nH]c1=O)N1CCSCC1
attributeMeasured: cytotoxicity at 70.5 h
number: -8.45

compound: COc1cccc([C@H]2CN(C(=O)c3ccccc3)[C@@H]3CCCN[C@H]23)c1
attributeMeasured: cytotoxicity at 70.5 h
number: 15.6
